assay: Bioavailability in rat at 5 mg/kg, po; assay type: ADME, organism-based; conditions: in vivo
quantity.name: bioavailability (%)

P. OC1CCc2c(Br)ccc(Nc3cc(-c4ccc(C(F)(F)F)cc4)ncn3)c2C1 (configuration not stated)
Q. OC1CCc2c(Cl)ccc(Nc3cc(-c4ccc(C(F)(F)F)cc4)ncn3)c2C1 (configuration not stated)
Hey, between P and Q which has a smaller measured bioavailability? # respond with the chosen item's label Q

====

assay: Solubility in phosphate buffered saline at pH 7.4; assay type: physicochemical; details: phosphate buffered saline, read-out: Solubility
quantity.name: Solubility (µg/mL)
Please give a number only; it is taken to be in µg/mL.

What value of Solubility has been recorded for this entry: OC1CCc2c(Br)ccc(Nc3cc(-c4ccc(C(F)(F)F)cc4)ncn3)c2C1 (stereo unspecified) 7.7

====

test: Solubility in phosphate buffered saline at pH 7.4; format: physicochemical; settings: buffer
quantity.name: Solubility (µg/mL)

OC1CCc2cccc(Nc3cc(-c4ccc(C(F)(F)F)cc4)ncn3)c2C1 (stereo in doubt; 4) : 23

P. OC1CCc2cccc(Nc3cc(-c4ccc(C(F)(F)F)cc4)ncn3)c2C1 (single isomer, unassigned; (+))
Q. OC1CCc2cccc(Nc3cc(-c4ccc(C(F)(F)F)cc4)ncn3)c2C1 (single isomer, unassigned; (-))
Looking only at measured Solubility, which entry is lower, P or Q ? Give the label under which the chosen entry appears. P

====

assay: Solubility in aqueous 0.01 N HCL; format: physicochemical; settings: aqueous 0.01 N HCl; read-out: Solubility
quantity.name: Solubility (µg/mL)

a. OC1CCc2c(Br)ccc(Nc3cc(-c4ccc(C(F)(F)F)cc4)ncn3)c2C1 (configuration not stated)
b. OC1CCc2cccc(Nc3cc(-c4ccc(C(F)(F)F)cc4)ncn3)c2C1 (single isomer, unassigned; (-))
Return label of the item with the larger Solubility. Candidates: a , b . I would appreciate it if you answered with the label of your choice. b
(b: 160 µg/mL, a: 7.2 µg/mL)

====

target: UniProt Q8NER1; test: Antagonist activity at human TRPV1 expressed in CHO cells assessed as inhibition of capsaicin-induced calcium mobilization
Sequence (Q8NER1 whole entry): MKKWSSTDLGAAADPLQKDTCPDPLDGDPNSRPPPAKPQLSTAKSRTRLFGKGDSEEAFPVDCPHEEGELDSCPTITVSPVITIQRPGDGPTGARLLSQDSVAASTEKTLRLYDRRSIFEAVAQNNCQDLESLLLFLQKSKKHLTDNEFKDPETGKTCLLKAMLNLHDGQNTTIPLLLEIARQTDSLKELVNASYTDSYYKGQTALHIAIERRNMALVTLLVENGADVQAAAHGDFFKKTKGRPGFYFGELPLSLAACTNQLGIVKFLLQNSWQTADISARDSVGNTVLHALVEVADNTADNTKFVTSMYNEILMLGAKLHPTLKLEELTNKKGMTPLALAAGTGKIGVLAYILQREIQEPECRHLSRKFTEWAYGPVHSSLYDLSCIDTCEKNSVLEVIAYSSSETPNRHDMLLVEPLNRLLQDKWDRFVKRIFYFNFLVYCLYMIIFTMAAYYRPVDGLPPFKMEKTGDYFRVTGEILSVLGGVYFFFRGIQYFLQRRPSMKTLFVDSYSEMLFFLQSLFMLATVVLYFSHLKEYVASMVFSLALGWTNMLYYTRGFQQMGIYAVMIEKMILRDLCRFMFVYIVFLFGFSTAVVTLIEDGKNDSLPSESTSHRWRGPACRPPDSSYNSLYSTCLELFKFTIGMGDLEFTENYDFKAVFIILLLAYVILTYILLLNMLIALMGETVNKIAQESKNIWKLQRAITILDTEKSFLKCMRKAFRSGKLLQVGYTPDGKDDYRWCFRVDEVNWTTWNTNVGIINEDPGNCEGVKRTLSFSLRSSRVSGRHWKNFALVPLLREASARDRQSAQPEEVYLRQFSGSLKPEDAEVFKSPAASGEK
pIC50: −log10 of the molar value.
quantity.name: pIC50

// below: answered compounds
OC1CCc2cccc(Nc3cc(-c4ccc(C(F)(F)F)cc4)ncn3)c2C1 (single isomer, unassigned; (-)) : 9.21
OC1CCc2cccc(Nc3cc(-c4ccc(C(F)(F)F)cc4)ncn3)c2C1 (stereo in doubt; 4) : 9.19

a. OC1CCc2cccc(Nc3cc(-c4ccc(C(F)(F)F)cc4)ncn3)c2C1 (single isomer, unassigned; (+))
b. CSc1cccc(NC(=O)Nc2cccc3ccc(O)cc23)c1
c. OC1CCc2c(Br)ccc(Nc3cc(-c4ccc(C(F)(F)F)cc4)ncn3)c2C1 (stereo not given)
Write the entries in order, lowest recorded pIC50 first. Please respond with the labels ordered as the question requires. b, c, a
(b: 7.89, c: 8.68, a: 9.24)

====

test: Clearance in iv dosed rat; type: ADME, organism-based; conditions: in vivo
quantity.name: clearance (mL/min/kg)

A. OC1CCc2cccc(Nc3cc(-c4ccc(C(F)(F)F)cc4)ncn3)c2C1 (single isomer, unassigned; (-))
B. OC1CCc2c(Br)ccc(Nc3cc(-c4ccc(C(F)(F)F)cc4)ncn3)c2C1 (configuration not stated)
Of the pair A and B , name the member with the lesser recorded clearance. Refer to your chosen entry by its label in the reply. B
(B: 6.5 mL/min/kg, A: 96.7 mL/min/kg)

The values you see were collected from ChEMBL document CHEMBL1142300.
